assay: Stability in dog hepatocytes assessed as half life at 1 uM incubated upto 180 mins by LC-MS/MS analysis
Format: ADME, cell-based, Canis lupus familiaris, Hepatocyte
reported.metric: half-life at 1 µM

Asked: Looking for the measured half-life at 1 µM of "C[C@@H](Oc1ccc2[nH]nc(-c3ccc(N4CC5(C4)CN(S(C)(=O)=O)C5)nc3)c2c1)c1c(Cl)cncc1Cl" , can you help?
Given back: > 1.67 h

* * *

assay: Half life in dog at 1 mg/kg, iv measured for 24 hrs by LC-MS/MS analysis
Assay type: ADME, organism-based, Canis lupus familiaris
condition.summary: in vivo
reported.metric: half-life (h)
Enter your answer as a number in h; do not include the unit.

Asked: Looking for the measured half-life of "C[C@@H](Oc1ccc2[nH]nc(-c3ccc(N4CC5(C4)CN(S(C)(=O)=O)C5)nc3)c2c1)c1c(Cl)cncc1Cl" , can you help?
Given back: 5.52

* * *

assay.target: Fibroblast growth factor receptor 3 (Homo sapiens, UniProt P22607, G380R)
Sequence (P22607 23-806 G380R limits assumed): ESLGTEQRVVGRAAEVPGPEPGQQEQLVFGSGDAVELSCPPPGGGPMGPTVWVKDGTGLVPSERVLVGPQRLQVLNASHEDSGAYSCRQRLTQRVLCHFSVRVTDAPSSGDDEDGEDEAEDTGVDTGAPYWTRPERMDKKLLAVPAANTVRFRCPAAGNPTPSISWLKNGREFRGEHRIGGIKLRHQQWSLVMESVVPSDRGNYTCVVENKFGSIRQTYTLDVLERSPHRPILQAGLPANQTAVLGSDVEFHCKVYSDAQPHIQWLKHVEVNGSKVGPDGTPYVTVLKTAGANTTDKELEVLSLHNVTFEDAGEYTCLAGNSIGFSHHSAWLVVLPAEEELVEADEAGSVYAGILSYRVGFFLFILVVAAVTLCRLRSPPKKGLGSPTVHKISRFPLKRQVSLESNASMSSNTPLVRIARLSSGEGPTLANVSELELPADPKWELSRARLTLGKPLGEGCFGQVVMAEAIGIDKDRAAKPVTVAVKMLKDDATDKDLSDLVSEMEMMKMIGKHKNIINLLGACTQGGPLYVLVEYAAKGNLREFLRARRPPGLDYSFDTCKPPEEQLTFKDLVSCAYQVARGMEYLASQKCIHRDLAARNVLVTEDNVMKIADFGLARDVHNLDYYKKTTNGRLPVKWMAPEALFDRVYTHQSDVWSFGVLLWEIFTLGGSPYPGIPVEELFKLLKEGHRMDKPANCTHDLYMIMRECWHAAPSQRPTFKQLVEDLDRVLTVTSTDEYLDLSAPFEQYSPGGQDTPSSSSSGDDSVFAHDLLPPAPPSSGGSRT
assay: Inhibition of FGFR3 G380R mutant (unknown origin) by NanoBRET assay
reported.metric: IC50 (nM)
Enter your answer as a number in nM; do not include the unit.

Asked: Looking for the measured IC50 of "C[C@@H](Oc1ccc2[nH]nc(-c3ccc(N4CC5(C4)CN(S(C)(=O)=O)C5)nc3)c2c1)c1c(Cl)cncc1Cl" , can you help?
Given back: 21

* * *

assay: Cmax in Sprague-Dawley rat at 10 mg/kg, po measured for 24 hrs by LC-MS/MS analysis
Assay type: ADME, organism-based
condition.summary: in vivo
reported.metric: Cmax (ng/mL)
Enter your answer as a number in ng/mL; do not include the unit.

Asked: Looking for the measured Cmax of "C[C@@H](Oc1ccc2[nH]nc(-c3ccc(N4CC5(C4)CN(S(C)(=O)=O)C5)nc3)c2c1)c1c(Cl)cncc1Cl" , can you help?
Given back: 802

* * *

assay: Stability in human hepatocytes assessed as half life at 1 uM incubated upto 180 mins by LC-MS/MS analysis
Format: ADME, cell-based, Hepatocyte
reported.metric: half-life at 1 µM

{"chemical.string": "C[C@@H](Oc1ccc2[nH]nc(-c3ccc(N4CC5(CCN5S(C)(=O)=O)C4)nc3)c2c1)c1c(Cl)cncc1Cl", "half-life at 1 µM": "0.817 h"}
{"chemical.string": "C[C@@H](Oc1ccc2[nH]nc(-c3ccc(N4CC5(CCCN(S(C)(=O)=O)C5)C4)nc3)c2c1)c1c(Cl)cncc1Cl", "half-life at 1 µM": "0.667 h"}
{"chemical.string": "Cc1ncc(Cl)c([C@@H](C)Oc2ccc3[nH]nc(-c4ccc(N5CC6(C5)CN(S(C)(=O)=O)C6)nc4)c3c2)c1Cl", "half-life at 1 µM": "1.07 h"}
{"chemical.string": "C[C@@H](Oc1ccc2[nH]nc(-c3ccc(N4CC5(C4)CN(S(C)(=O)=O)C5)nn3)c2c1)c1c(Cl)cncc1Cl", "half-life at 1 µM": "> 1.67 h"}
{"chemical.string": "C[C@@H](Oc1cc2c(-c3ccc(N4CC5(C4)CN(S(C)(=O)=O)C5)nc3)n[nH]c2cc1F)c1c(Cl)cncc1Cl", "half-life at 1 µM": "> 1.67 h"}
{"chemical.string": "C[C@@H](Oc1ccc2[nH]nc(-c3ccc(N4CC5(CCN(S(C)(=O)=O)CC5)C4)nc3)c2c1)c1c(Cl)cncc1Cl", "half-life at 1 µM": "> 1.67 h"}
{"chemical.string": "CC(C)N1CC2(CN(c3ccc(-c4n[nH]c5ccc(O[C@H](C)c6c(Cl)cncc6Cl)cc45)cn3)C2)C1", "half-life at 1 µM": "0.85 h"}
{"chemical.string": "CCOC(=O)N1CC2(C1)CN(c1ccc(-c3n[nH]c4ccc(O[C@H](C)c5c(Cl)cncc5Cl)cc34)cn1)C2", "half-life at 1 µM": "0.45 h"}
{"chemical.string": "C[C@@H](Oc1ccc2[nH]nc(-c3ccc(N4CC5(CCN(S(C)(=O)=O)C5)C4)nc3)c2c1)c1c(Cl)cncc1Cl", "half-life at 1 µM": "> 1.67 h"}
{"chemical.string": "C[C@@H](Oc1ccc2[nH]nc(-c3ccc(N4CC5(CCCS(=O)(=O)C5)C4)nc3)c2c1)c1c(Cl)cncc1Cl", "half-life at 1 µM": "1.42 h"}

Asked: Looking for the measured half-life at 1 µM of "C[C@@H](Oc1ccc2[nH]nc(-c3ccc(N4CC5(CN(C(=O)N(C)C)C5)C4)nc3)c2c1)c1c(Cl)cncc1Cl" , can you help?
Given back: 0.233 h

Asked: Also check "C[C@@H](Oc1ccc2[nH]nc(-c3ccc(N4CCC5(CC4)CCS(=O)(=O)C5)nc3)c2c1)c1c(Cl)cncc1Cl"
Given back: 1.47 h

Asked: Also check "C[C@@H](Oc1ccc2[nH]nc(-c3ccc(N4CC5(CCS(=O)(=O)CC5)C4)nc3)c2c1)c1c(Cl)cncc1Cl"
Given back: 1.43 h

Asked: Also check "C[C@@H](Oc1ccc2[nH]nc(-c3cnc(N4CC5(C4)CN(S(C)(=O)=O)C5)nc3)c2c1)c1c(Cl)cncc1Cl"
Given back: 2.2 h

Asked: Also check "Cc1cncc(C)c1[C@@H](C)Oc1ccc2[nH]nc(-c3ccc(N4CC5(C4)CN(S(C)(=O)=O)C5)nc3)c2c1"
Given back: 0.533 h

* * *

assay: Volume of distribution in dog at 1 mg/kg, iv measured for 24 hrs by LC-MS/MS analysis
Assay type: ADME, organism-based, Canis lupus familiaris
condition.summary: in vivo
reported.metric: Vd (L/kg)
Enter your answer as a number in L/kg; do not include the unit.

Asked: Looking for the measured Vd of "C[C@@H](Oc1ccc2[nH]nc(-c3ccc(N4CC5(C4)CN(S(C)(=O)=O)C5)nc3)c2c1)c1c(Cl)cncc1Cl" , can you help?
Given back: 1.12

* * *

assay: Cmax in monkey at 10 mg/kg, po measured for 24 hrs by LC-MS/MS analysis
Format: ADME, organism-based, Macaca mulatta
condition.summary: rhesus monkey, in vivo
reported.metric: Cmax (ng/mL)
Enter your answer as a number in ng/mL; do not include the unit.

Asked: Looking for the measured Cmax of "C[C@@H](Oc1ccc2[nH]nc(-c3ccc(N4CC5(C4)CN(S(C)(=O)=O)C5)nc3)c2c1)c1c(Cl)cncc1Cl" , can you help?
Given back: 1210

* * *

assay.target: Fibroblast growth factor receptor 3 (Homo sapiens, UniProt P22607, K650E)
Sequence (P22607 23-806 K650E limits assumed): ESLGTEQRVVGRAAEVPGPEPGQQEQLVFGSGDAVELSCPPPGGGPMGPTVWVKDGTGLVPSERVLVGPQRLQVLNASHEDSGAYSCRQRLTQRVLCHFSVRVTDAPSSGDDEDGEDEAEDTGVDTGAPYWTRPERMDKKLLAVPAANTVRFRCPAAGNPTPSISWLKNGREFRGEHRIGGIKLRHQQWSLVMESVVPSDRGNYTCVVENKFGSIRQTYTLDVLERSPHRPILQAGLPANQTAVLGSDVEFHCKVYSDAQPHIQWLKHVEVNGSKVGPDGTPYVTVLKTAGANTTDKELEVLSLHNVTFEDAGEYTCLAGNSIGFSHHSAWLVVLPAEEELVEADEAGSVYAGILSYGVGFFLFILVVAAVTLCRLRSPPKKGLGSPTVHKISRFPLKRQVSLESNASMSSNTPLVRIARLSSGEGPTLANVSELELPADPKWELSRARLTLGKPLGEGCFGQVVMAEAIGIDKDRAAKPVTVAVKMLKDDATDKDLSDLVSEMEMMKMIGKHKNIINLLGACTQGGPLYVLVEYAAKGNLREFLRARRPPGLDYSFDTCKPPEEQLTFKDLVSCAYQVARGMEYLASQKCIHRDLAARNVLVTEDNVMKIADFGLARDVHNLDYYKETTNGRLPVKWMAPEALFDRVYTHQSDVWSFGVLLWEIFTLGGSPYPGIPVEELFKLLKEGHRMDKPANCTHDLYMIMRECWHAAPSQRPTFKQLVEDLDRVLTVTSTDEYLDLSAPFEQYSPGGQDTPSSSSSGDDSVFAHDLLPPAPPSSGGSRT
assay: Inhibition of FGFR3 K650E mutant (unknown origin) by mobility shift assay
reported.metric: pIC50
Entry type: numeric. Quantity: pIC50, the -log10 of concentration in molar units.

Asked: Looking for the measured pIC50 of "C[C@@H](Oc1ccc2[nH]nc(-c3ccc(N4CC5(C4)CN(S(C)(=O)=O)C5)nc3)c2c1)c1c(Cl)cncc1Cl" , can you help?
Given back: 8.55

* * *

assay: Inhibition of recombinant BCR/FGFR2 (unknown origin) transduced in mouse BaF3 cells incubated for 48 hrs by Cell Titer Glo assay
Type: cell-based
condition.summary: BaF3, 48 h
A collection of molecules and their measured log10 of IC50
Give log10 of IC50, with IC50 taken in nM.

Here are 2 molecules together with their reported answers.
{"chemical.string": "CCOC(=O)N1CC2(C1)CN(c1ccc(-c3n[nH]c4ccc(O[C@H](C)c5c(Cl)cncc5Cl)cc34)cn1)C2", "quantitative.readout": 2.39}
{"chemical.string": "C[C@@H](Oc1ccc2[nH]nc(-c3ccc(N4CC5(CN(C(=O)N(C)C)C5)C4)nc3)c2c1)c1c(Cl)cncc1Cl", "quantitative.readout": 2.31}

Asked: Looking for the measured log10 of IC50 of "Cc1ncc(Cl)c([C@@H](C)Oc2ccc3[nH]nc(-c4ccc(N5CC6(C5)CN(S(C)(=O)=O)C6)nc4)c3c2)c1Cl" , can you help?
Given back: 1.67

Asked: Also check "COC(=O)N1CCN(c2ccc(-c3n[nH]c4ccc(O[C@H](C)c5c(Cl)cncc5Cl)cc34)cn2)CC1"
Given back: 2.59

Asked: Also check "C[C@@H](Oc1ccc2[nH]nc(-c3ccc(N4CC5(CCCS(=O)(=O)C5)C4)nc3)c2c1)c1c(Cl)cncc1Cl"
Given back: 1.52

Asked: Also check "C[C@@H](Oc1ccc2[nH]nc(-c3ccc(N4CC5(CCN5S(C)(=O)=O)C4)nc3)c2c1)c1c(Cl)cncc1Cl"
Given back: 2.12

Asked: Also check "C[C@@H](Oc1ccc2[nH]nc(-c3ccc(N4CCC5(CC4)CN(C)CC(=O)N5)nc3)c2c1)c1c(Cl)cncc1Cl"
Given back: 2.19

Asked: Also check "C[C@@H](Oc1ccc2[nH]nc(-c3ccc(N4CCC5(CCOC5)CC4)nc3)c2c1)c1c(Cl)cncc1Cl"
Given back: 2.56

* * *

assay: AUC (last) in monkey at 10 mg/kg, po measured for 24 hrs by LC-MS/MS analysis
Type: ADME, organism-based, Macaca mulatta
condition.summary: rhesus monkey, in vivo
reported.metric: AUC(0-t) at 24 h
Express your answer as a number followed by its unit.

Asked: Looking for the measured AUC(0-t) at 24 h of "C[C@@H](Oc1ccc2[nH]nc(-c3ccc(N4CC5(C4)CN(S(C)(=O)=O)C5)nc3)c2c1)c1c(Cl)cncc1Cl" , can you help?
Given back: 15900 ng·h/mL
